- methodNotes: Pharmacokinetic analysis of blood samples (noncompartmental)
- Format: in vivo, human
- conditionLabel: human, in vivo, tivantinib, steady state (cycle 2), non-HCC patients, tivantinib 360 mg BID and sorafenib 400 mg BID; read-out: AUC0-12h
measuredProperty: AUC(0-t) (ng·h/mL)
# number only, unit ng·h/mL dropped from output

Requested read-out: AUC(0-t). Entry: O=C1NC(=O)[C@@H](c2cn3c4c(cccc24)CCC3)[C@@H]1c1c[nH]c2ccccc12 [tivantinib, Tivantinib]
8740

====

- methodNotes: Pharmacokinetic analysis of blood samples (noncompartmental)
- Type: in vivo, human
- conditionLabel: human, in vivo, tivantinib, steady state (cycle 2), non-HCC patients, tivantinib 360 mg BID and sorafenib 400 mg BID; read-out: mean Cmax
- Description: Blood samples were collected pre-, 1, 2, 4, 6, 8, 12, and 24 h post-dose on Days 1 and 2 of Cycles 1 and 2. […] Noncompartmental PK parameters were calculated using WinNonlin (Pharsight, Mountain View, CA).
measuredProperty: Cmax (µg/mL)
# output: bare number, implied unit µg/mL

Tell me the measured Cmax of O=C1NC(=O)[C@@H](c2cn3c4c(cccc24)CCC3)[C@@H]1c1c[nH]c2ccccc12 [tivantinib, Tivantinib] , please.
1.32

====

- methodNotes: Pharmacokinetic analysis of blood samples (noncompartmental)
- Format: in vivo, human
- conditionLabel: human, in vivo, tivantinib, cycle 2, one HCC patient, tivantinib 240 mg BID with sorafenib 400 mg BID; read-out: Cmax
- Procedure: Blood samples were collected pre-, 1, 2, 4, 6, 8, 12, and 24 h post-dose on Days 1 and 2 of Cycles 1 and 2. […] Noncompartmental PK parameters were calculated using WinNonlin (Pharsight, Mountain View, CA).
measuredProperty: Cmax (ng/mL)
Numbers only; they are read as ng/mL.

Given the entry O=C1NC(=O)[C@@H](c2cn3c4c(cccc24)CCC3)[C@@H]1c1c[nH]c2ccccc12 [tivantinib, Tivantinib] , report its measured Cmax.
879
